- System: MET
- ASSAY: MET biochemical kinase assay
- Parameters: species or system human; concentration or dose not given beside the values
Would you mind telling me the reported Met Kinase % Inhibition of each entry?
Just the number in %, nothing appended.

Respond only with Met Kinase % Inhibition recorded for `O=C1Nc2ccc(S(=O)(=O)N3CCOCC3)cc2C1=Cc1c[nH]cn1`
25.7

Respond only with Met Kinase % Inhibition recorded for `CC(C)(C)c1cc(C=C2C(=O)Nc3ccc(S(=O)(=O)N4CCOCC4)cc32)cc(C(C)(C)C)c1O`
78.2

Respond only with Met Kinase % Inhibition recorded for `O=C1Nc2ccc(I)cc2C1=Cc1ccccc1O`
51.8

Respond only with Met Kinase % Inhibition recorded for `CNS(=O)(=O)c1ccc2c(c1)C(=Cc1c(OC)cccc1OC)C(=O)N2`
13.5

Respond only with Met Kinase % Inhibition recorded for `CNS(=O)(=O)c1ccc2c(c1)C(=Cc1ccc(O)c([N+](=O)[O-])c1)C(=O)N2`
18.2
